Can you tell me Ki for the items I'm about to list?
Please give a number only; it is taken to be in nM.

Recorded Ki for `Cc1cccc(C)c1C[C@H](NC(=O)[C@@H](CCCN=C(N)N)NC(=O)[C@@H](N)Cc1ccc(O)cc1)C(=O)NCCC(N)=O` with UniProt P33535, please?
0.035

Recorded Ki for `Cc1cccc(C)c1C[C@@H](N)C(=O)N[C@H](CCCNC(=N)N)C(=O)N[C@@H](Cc1ccccc1)C(=O)NCCC(N)=O` with UniProt P33535, please?
7.62

Recorded Ki for `Cc1cccc(C)c1C[C@@H](NC(=O)[C@@H](CCCN=C(N)N)NC(=O)[C@@H](N)Cc1ccc(O)cc1)C(=O)NCCC(N)=O` with UniProt P33535, please?
0.0618

Recorded Ki for `Cc1cc(O)cc(C)c1C[C@H](N)C(=O)N[C@H](CCCN=C(N)N)C(=O)N[C@@H](Cc1ccccc1)C(=O)NCCC(N)=O` with UniProt P33535, please?
0.00205

====

Can you tell me IC50 for the items I'm about to list?
Biological target: Mu-type opioid receptor (Cavia porcellus)
Sequence (P97266 whole entry): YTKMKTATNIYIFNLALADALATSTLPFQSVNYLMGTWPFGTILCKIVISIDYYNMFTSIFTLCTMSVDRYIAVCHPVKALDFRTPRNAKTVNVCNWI
Experiment: Ability to inhibit electrically induced contractions of guinea pig ileum having mu opioid receptors tested in vitro
Please give a number only; it is taken to be in nM.

Recorded IC50 for `Cc1cccc(C)c1C[C@@H](NC(=O)[C@@H](CCCN=C(N)N)NC(=O)[C@@H](N)Cc1ccc(O)cc1)C(=O)NCCC(N)=O` with Mu-type opioid receptor (Cavia porcellus), please?
19.8

Recorded IC50 for `Cc1cccc(C)c1C[C@H](NC(=O)[C@@H](CCCN=C(N)N)NC(=O)[C@@H](N)Cc1ccc(O)cc1)C(=O)NCCC(N)=O` with Mu-type opioid receptor (Cavia porcellus), please?
1.67

Recorded IC50 for `N=C(N)NCCC[C@@H](NC(=O)[C@@H](N)Cc1ccc(O)cc1)C(=O)N[C@@H](Cc1ccccc1)C(=O)NCCC(N)=O` with Mu-type opioid receptor (Cavia porcellus), please?
5.31

Recorded IC50 for `Cc1cccc(C)c1C[C@H](NC(=O)[C@@H](CCCN=C(N)N)NC(=O)[C@@H](N)Cc1c(C)cccc1C)C(=O)NCCC(N)=O` with Mu-type opioid receptor (Cavia porcellus), please?
2.76

====

Biological target: Delta-type opioid receptor (Mus musculus)
Conditions: Vas deferens
Description: Affinity towards delta opioid receptor using CTAP as antagonist in mouse vas deferens
Can you tell me Ke for the items I'm about to list?
Please give a number only; it is taken to be in nM.

Which Ke value is on record for `Cc1cccc(C)c1C[C@H](N)C(=O)N[C@H](CCCN=C(N)N)C(=O)N[C@@H](Cc1ccccc1)C(=O)NCCC(N)=O` ?
13.4

Which Ke value is on record for `Cc1cccc(C)c1C[C@H](NC(=O)[C@@H](CCCN=C(N)N)NC(=O)[C@@H](N)Cc1c(C)cccc1C)C(=O)NCCC(N)=O` ?
10.2

Which Ke value is on record for `NC(=O)CCNC(=O)[C@H](Cc1ccccc1)NC(=O)[C@@H](CCCN=C(N)N)NC(=O)[C@@H](N)Cc1ccc(O)cc1` ?
21.2

Which Ke value is on record for `Cc1cccc(C)c1C[C@H](NC(=O)[C@@H](CCCN=C(N)N)NC(=O)[C@@H](N)Cc1ccc(O)cc1)C(=O)NCCC(N)=O` ?
11.4

====

Can you tell me pKi for the items I'm about to list?
Molecular target: Delta-type opioid receptor (Rattus norvegicus, UniProt P33533)
Sequence (P33533 whole entry): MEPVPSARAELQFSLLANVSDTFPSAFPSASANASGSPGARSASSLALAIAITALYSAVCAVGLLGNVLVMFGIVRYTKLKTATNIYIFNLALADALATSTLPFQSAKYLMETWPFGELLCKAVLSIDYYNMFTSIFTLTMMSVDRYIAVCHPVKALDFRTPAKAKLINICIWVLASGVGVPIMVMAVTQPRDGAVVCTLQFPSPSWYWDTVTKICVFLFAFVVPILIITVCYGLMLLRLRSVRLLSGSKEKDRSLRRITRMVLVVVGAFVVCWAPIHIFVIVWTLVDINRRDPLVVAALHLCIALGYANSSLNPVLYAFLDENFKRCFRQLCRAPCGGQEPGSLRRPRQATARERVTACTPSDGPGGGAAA
Assay: Ability to displace [3H]-deltorphin II from delta opioid receptor
Notebook: values listed as pKi are -log10 of the concentration (mol/L).

Which pKi value is on record for `N=C(N)NCCC[C@@H](NC(=O)[C@@H](N)Cc1ccc(O)cc1)C(=O)N[C@@H](Cc1ccccc1)C(=O)NCCC(N)=O` ?
6.32

Which pKi value is on record for `Cc1cc(O)cc(C)c1C[C@H](N)C(=O)N[C@H](CCCN=C(N)N)C(=O)N[C@@H](Cc1ccccc1)C(=O)NCCC(N)=O` ?
8.95

Which pKi value is on record for `Cc1cccc(C)c1C[C@H](NC(=O)[C@@H](CCCN=C(N)N)NC(=O)[C@@H](N)Cc1c(C)cccc1C)C(=O)NCCC(N)=O` ?
5.77

Which pKi value is on record for `Cc1cccc(C)c1C[C@H](NC(=O)[C@@H](CCCN=C(N)N)NC(=O)[C@@H](N)Cc1ccc(O)cc1)C(=O)NCCC(N)=O` ?
6.26

Which pKi value is on record for `Cc1cccc(C)c1C[C@H](N)C(=O)N[C@H](CCCN=C(N)N)C(=O)N[C@@H](Cc1ccccc1)C(=O)NCCC(N)=O` ?
5.59

# credit: ChEMBL document CHEMBL1136677
